Tested on: 3T3 fibroblast cells
Test: In vitro phototoxicity assay (neutral red; UV light-treated vs dark control plates)
Format: cell-based
Conditions: UV light 50 minutes
QUANTITY_KIND: Photo Toxicity UV Tox50

Query: Complete the entry with Photo Toxicity UV Tox50 for CN(C)CCCCNCc1ccc(O)c2c1C[C@H]1C[C@H]3[C@H](N(C)C)C(O)=C(C(N)=O)C(=O)[C@@]3(O)C(O)=C1C2=O [CN]
Reply: >138.03 µM

Query: Consider the molecule CN(C)CCNCc1ccc(-c2ccc(O)c3c2C[C@H]2C[C@H]4[C@H](N(C)C)C(O)=C(C(N)=O)C(=O)[C@@]4(O)C(O)=C2C3=O)o1 [CY] and give its recorded Photo Toxicity UV Tox50.
Reply: >142.02 µM

Query: Identify the reported Photo Toxicity UV Tox50 for the following entry. CN(C)CCNC(=O)c1cccc(-c2cc(N(C)C)c3c(c2O)C(=O)C2=C(O)[C@]4(O)C(=O)C(C(N)=O)=C(O)[C@@H](N(C)C)[C@@H]4C[C@@H]2C3)c1 [V]
Reply: >125.47 µM

Query: Give a short answer stating reported Photo Toxicity UV Tox50 for CN(C)CCNC(=O)c1cccc(-c2ccc(O)c3c2C[C@H]2C[C@H]4[C@H](N(C)C)C(O)=C(C(N)=O)C(=O)[C@@]4(O)C(O)=C2C3=O)c1 [AB] .
Reply: >200 µM

Query: Tell me its Photo Toxicity UV Tox50 given CN(C)CCCCN(C)Cc1cccc(-c2ccc(O)c3c2C[C@H]2C[C@H]4[C@H](N(C)C)C(O)=C(C(N)=O)C(=O)[C@@]4(O)C(O)=C2C3=O)c1 [CW] as the entry.
Reply: >132.05 µM

Query: For the molecule CN(C)[C@@H]1C(O)=C(C(N)=O)C(=O)[C@@]2(O)C(O)=C3C(=O)c4c(O)ccc(-c5cccc(C(=O)NCCN)c5)c4C[C@H]3C[C@@H]12 [N] , give its reported Photo Toxicity UV Tox50.
Reply: 95.14 µM

Value source: patent US20100022483A1
